Target: T1, untagged APOL1-G0, KIK variant, transiently expressed (COS cells) (human, UniProt O14791 29-398)
T1 construct: Origene SC109941 clone with E150K, M228I, R255K
T1 chain: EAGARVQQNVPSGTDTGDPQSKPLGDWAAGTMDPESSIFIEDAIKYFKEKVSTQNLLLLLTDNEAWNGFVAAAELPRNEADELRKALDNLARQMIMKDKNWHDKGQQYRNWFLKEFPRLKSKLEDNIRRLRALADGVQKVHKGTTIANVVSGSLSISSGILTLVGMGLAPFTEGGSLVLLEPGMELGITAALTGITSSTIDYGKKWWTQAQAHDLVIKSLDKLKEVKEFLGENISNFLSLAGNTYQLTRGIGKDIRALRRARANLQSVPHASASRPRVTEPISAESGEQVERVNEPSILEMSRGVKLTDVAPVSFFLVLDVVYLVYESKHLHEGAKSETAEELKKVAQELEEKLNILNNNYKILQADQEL
Experiment: immunofluorescence on transfected COS cells, 1 µg/ml; grade
metric-name: binding result

antibody 3.3A8 (antibody, V domains shown, Mouse mAb, cloned as murine IgG2a LALAPG; also called MAD antibody 3.3A8) VH: QVQFQQSGAELVRPGASVKVTCKALGYTFSNYEIHWVRQPPVHGLEWIGAIHPGNGVTAYNQMFKGRATLAADKSSSTAYMELSSLTSEDSAVYYCTENFDYWGQGTALTVSS VL: DVVVTQTPLSLPVSFGDQVSISCRSSQSLTNSYGITYLSWFLLKPGQSPQLLIYEISNRFSGVPDRFSGSGSGTDFTLKISTIKPEDLGVYFCLQGTHQPFTFGAGTKLEIKR	binds
antibody 3.6D12 (antibody, V domains shown, Mouse mAb (Method #3), cloned as murine IgG2a LALAPG; Early screens used hybridoma-purified antibody; also called mAb 3.6D12) VH: EVMLVESGGGLVRPGGSLKLSCTASGFTFSRCAMSWVRQTPEKRLEWVSAISRDSTYTYYSDSVKGRFTVSRDNAKNTLYLQMSSLRSEDTAMYYCARQIDDYYVDALDYWGQGTSVTVSS VL: DVQITQSPSYLAASPGETITINCRASKIISKYLAWYQEKPGKTIKLLIYSGFTLQSGIPSRFSGSGSGTDFTLTISSLEPEDFAMYYCQQHNEYPLTFGAGTKLEIKR	binds
rabbit monoclonal antibody 5.17D12 (antibody, V domains shown, Rabbit mAb (Method #5), recombinant; also called rabmab 5.17D12) VH: QSLEESGGDLVKPGASLTLTCTASGFSFSSNYYMCWVRQAPGKGLEWIACVYVGSGGSTYYASWAKGRFTFSKTSSTTWTLQMTSLTAADTATYFCARDLSYAGDLWGPGTLVTVSS VL: DPVMTQTPASVSEPVGGTVTINCQASESISSYLAWYQQKPGQPPKLLIYGASNLASGVPSRFKGSGSGTEYTLTISDLECDDAATYYCQSAYYSNSGGHAFGGGTEVVVKG	binds

Source listed as patent US20230071609A1.
